# subject-of-test: Neuronal acetylcholine receptor; alpha4/beta2 (Rattus norvegicus, UniProt P09483+P12390)
# Sequence (P09483 whole entry): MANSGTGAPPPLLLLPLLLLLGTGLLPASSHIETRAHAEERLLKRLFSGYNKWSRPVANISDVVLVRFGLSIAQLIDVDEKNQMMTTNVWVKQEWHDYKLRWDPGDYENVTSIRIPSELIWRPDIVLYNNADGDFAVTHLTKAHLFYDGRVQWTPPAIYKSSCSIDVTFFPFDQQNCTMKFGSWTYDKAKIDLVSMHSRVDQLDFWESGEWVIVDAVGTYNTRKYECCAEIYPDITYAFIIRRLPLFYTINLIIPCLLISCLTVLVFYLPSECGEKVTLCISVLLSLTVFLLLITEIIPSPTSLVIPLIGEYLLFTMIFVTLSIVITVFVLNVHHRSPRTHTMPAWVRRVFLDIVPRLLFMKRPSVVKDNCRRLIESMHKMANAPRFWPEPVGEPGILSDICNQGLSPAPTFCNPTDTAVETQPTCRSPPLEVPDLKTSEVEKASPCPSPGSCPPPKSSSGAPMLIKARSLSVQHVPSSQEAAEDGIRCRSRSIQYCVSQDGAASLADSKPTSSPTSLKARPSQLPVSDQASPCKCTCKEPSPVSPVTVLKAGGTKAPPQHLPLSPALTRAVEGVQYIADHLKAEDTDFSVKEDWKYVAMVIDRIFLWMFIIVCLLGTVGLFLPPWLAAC
# Sequence (P12390 whole entry): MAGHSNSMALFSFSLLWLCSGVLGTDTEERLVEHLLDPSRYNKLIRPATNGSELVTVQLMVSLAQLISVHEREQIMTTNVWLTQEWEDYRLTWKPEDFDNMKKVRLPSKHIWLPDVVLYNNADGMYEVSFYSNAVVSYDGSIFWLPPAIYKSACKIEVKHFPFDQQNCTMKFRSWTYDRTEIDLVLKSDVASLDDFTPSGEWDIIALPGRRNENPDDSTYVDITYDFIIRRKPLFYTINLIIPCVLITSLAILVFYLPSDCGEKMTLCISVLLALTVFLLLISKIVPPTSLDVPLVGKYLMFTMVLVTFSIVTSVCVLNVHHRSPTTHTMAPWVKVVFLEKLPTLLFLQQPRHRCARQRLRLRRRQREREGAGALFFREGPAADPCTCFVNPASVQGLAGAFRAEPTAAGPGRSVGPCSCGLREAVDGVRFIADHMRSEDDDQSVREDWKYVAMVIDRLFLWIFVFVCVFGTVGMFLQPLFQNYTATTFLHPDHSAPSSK
# experiment-notes: Displacement of [3H]epibatidine from alpha-4-beta-2 nACHR in rat cerebral cortex
pKi: −log10 of the molar value.
Reported pKi values for a set of compounds
assay-metric: pKi

>>> df
                                   compound  assay_metric  data_value
0  c1cc2c(cn1)C1CCC(CC2)N1 (single isomer, unassigned; (-))           pKi        6.46
1  c1cc2c(cn1)C1CCC(CC2)N1 (single isomer, unassigned; (+))           pKi        8.89
2         c1cc2c(cn1)C1CCC(CC2)N1 (racemic)           pKi        8.21
